molecular target: RET (human); assay: KINOMEscan competition binding; conditions: compound 10.0 µM
readout: kinase still bound, per cent of control (%)
API: value field is a number in %; no unit string.

1. CN(C)C/C=C/C(=O)Nc1cccc(Nc2ncc3c(n2)N(C)c2ccccc2C(=O)N3C)c1: 0.15
2. COc1cc(N2CCN(C)CC2)ccc1Nc1nc(N)c(C(=O)c2c(Cl)cccc2Cl)s1: 97
3. C[C@@H](Oc1cc(-n2cnc3ccc(CN4CCN(C)CC4)cc32)sc1C(N)=O)c1ccccc1C(F)(F)F: 100
4. O=C(NC1CC1)c1cccc(-c2ccc3c(NC(=O)C4CC4)n[nH]c3c2)c1: 86

kinase still bound, per cent of control lookup needed for Cn1c(=O)n(-c2ccc(C(C)(C)C#N)cc2)c2c3cc(-c4cnc5ccccc5c4)ccc3ncc21 , thanks.
100

---

Listing: kinase still bound, per cent of control of selected compounds
target: UniProt Q9H2K8; assay: KINOMEscan competition binding; conditions: compound 10.0 µM
Sequence (Q9H2K8 whole entry, looked up): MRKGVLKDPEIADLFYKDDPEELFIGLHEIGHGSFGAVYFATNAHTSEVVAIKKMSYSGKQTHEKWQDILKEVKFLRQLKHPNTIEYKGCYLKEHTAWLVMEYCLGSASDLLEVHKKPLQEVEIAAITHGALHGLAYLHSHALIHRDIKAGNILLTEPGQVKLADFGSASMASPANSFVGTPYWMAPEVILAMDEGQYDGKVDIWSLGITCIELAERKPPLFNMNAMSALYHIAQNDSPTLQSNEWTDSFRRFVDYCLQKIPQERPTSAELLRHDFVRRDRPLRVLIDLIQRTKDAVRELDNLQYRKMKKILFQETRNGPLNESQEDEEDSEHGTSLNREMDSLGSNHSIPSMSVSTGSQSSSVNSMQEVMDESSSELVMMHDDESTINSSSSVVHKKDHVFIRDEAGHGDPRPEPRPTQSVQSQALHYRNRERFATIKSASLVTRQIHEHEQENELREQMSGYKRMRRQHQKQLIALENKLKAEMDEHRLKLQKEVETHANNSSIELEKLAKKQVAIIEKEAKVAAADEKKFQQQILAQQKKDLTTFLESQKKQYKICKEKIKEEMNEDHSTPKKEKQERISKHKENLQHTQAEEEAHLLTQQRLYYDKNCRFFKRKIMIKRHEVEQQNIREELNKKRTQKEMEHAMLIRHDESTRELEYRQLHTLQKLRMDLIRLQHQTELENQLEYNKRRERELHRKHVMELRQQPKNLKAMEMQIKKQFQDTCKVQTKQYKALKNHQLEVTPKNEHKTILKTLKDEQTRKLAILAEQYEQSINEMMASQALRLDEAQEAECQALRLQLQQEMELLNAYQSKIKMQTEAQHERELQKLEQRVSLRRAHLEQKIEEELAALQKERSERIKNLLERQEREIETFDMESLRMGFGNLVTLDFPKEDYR
API: value field is a number in %; no unit string.

Below are worked cases with known answers.
1) O=C(NC1CC1)c1cccc(-c2ccc3c(NC(=O)C4CC4)n[nH]c3c2)c1: 33
2) Cn1c(=O)n(-c2ccc(C(C)(C)C#N)cc2)c2c3cc(-c4cnc5ccccc5c4)ccc3ncc21: 100
3) Cc1ccc2nc(NCCN)c3ncc(C)n3c2c1: 59

Next, consider the following compound.
kinase still bound, per cent of control lookup needed for OCCCNc1cc(-c2ccnc(Nc3cccc(Cl)c3)n2)ccn1 , thanks.
100

---

molecular target: CDK4 CCND3 (human) (UniProt P11802+P30281); experiment: KINOMEscan competition binding; details: compound 10.0 µM
Sequence (P11802 whole entry, looked up): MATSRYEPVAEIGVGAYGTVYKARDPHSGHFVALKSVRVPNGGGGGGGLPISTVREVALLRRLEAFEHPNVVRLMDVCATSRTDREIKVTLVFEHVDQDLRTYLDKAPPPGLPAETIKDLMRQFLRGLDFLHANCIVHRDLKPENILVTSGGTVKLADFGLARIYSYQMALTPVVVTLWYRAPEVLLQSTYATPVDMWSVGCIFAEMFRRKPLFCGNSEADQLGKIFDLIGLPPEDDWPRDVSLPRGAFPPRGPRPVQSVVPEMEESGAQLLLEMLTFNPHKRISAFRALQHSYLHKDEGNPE
Sequence (P30281 whole entry, looked up): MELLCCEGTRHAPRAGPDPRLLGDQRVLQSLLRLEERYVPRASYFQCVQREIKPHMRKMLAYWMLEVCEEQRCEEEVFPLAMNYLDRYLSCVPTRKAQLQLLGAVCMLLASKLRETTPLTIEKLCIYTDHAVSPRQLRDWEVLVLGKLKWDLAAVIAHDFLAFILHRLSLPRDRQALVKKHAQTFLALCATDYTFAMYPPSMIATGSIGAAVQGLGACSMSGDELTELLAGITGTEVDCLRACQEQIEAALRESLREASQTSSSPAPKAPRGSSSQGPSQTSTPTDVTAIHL
readout: kinase still bound, per cent of control (%)
API: value field is a number in %; no unit string.

1) O=C(O)c1ccc(Nc2ncc3c(n2)-c2ccc(Cl)cc2C(c2c(F)cccc2F)=NC3)cc1: 100

kinase still bound, per cent of control lookup needed for CCC(=O)N1CCN(c2ccc(-n3c(=O)ccc4cnc5ccc(-c6cnc7ccccc7c6)cc5c43)cc2C(F)(F)F)CC1 , thanks.
87

Also need Cc1cc([C@@H](C)Nc2ccccc2C(=O)O)c2nc(N3CCOCC3)cc(=O)n2c1 , thanks.
100

Also need O=C1Nc2ccc(I)cc2/C1=C/c1cc(Br)c(O)c(Br)c1 , thanks.
99

Also need C[C@@H](Oc1cc(-n2cnc3ccc(CN4CCN(C)CC4)cc32)sc1C(N)=O)c1ccccc1C(F)(F)F , thanks.
70

Also need Cc1ccc2nc(NCCN)c3ncc(C)n3c2c1 , thanks.
75

Also need O=C(NC1CC1)c1cccc(-c2ccc3c(NC(=O)C4CC4)n[nH]c3c2)c1 , thanks.
82

Also need CCN1CCN(Cc2ccc(Nc3ncc4c(n3)N(C)c3ccccc3C(=O)N4C)cc2C(F)(F)F)CC1 , thanks.
100

Also need C=CC(=O)Nc1cc(NC(=O)c2ccc(C)c(NC(=O)c3ccno3)c2)cc(C(F)(F)F)c1 , thanks.
95

---

target: UniProt:Q9UPE1; experiment: KINOMEscan competition binding; conditions: compound 10.0 µM
Sequence (Q9UPE1 whole entry, looked up): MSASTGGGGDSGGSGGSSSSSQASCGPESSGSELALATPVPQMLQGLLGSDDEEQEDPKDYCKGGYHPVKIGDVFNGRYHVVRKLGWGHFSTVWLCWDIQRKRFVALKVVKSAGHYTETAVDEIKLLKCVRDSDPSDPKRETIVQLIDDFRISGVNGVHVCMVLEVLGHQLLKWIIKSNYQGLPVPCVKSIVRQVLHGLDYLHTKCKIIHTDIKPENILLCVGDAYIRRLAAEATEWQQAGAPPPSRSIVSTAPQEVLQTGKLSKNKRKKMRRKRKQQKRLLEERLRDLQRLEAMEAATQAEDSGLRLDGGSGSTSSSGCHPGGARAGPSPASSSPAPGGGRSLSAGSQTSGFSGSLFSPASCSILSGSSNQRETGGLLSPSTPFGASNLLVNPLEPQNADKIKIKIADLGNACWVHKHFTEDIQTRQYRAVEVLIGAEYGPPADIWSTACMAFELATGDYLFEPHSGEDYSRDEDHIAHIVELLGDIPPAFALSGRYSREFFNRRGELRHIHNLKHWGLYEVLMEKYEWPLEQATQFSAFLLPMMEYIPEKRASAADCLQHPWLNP
readout: kinase still bound, per cent of control (%)
API: value field is a number in %; no unit string.

Request body: readout kinase still bound, per cent of control, system UniProt:Q9UPE1, query CC[C@@H]1C(=O)N(C)c2cnc(Nc3ccc(C(=O)NC4CCN(C)CC4)cc3OC)nc2N1C1CCCC1 . Return the value.
100

Also need COc1cc(C(=O)NC2CCN(C)CC2)ccc1Nc1ncc2c(n1)N(C1CCCC1)C(C)CC(=O)N2C (stereo not given) , thanks.
100

Also need CN(C)C/C=C/C(=O)Nc1cccc(Nc2ncc3c(n2)N(C)c2ccccc2C(=O)N3C)c1 , thanks.
63

Also need Cn1c(=O)n(-c2ccc(C(C)(C)C#N)cc2)c2c3cc(-c4cnc5ccccc5c4)ccc3ncc21 , thanks.
100

Also need C=CC(=O)Nc1cccc(Oc2nc(Nc3ccc(N4CCN(C)CC4)cc3OC)ncc2Cl)c1 , thanks.
8.4

---

Listing: kinase still bound, per cent of control of selected compounds
target: ACVR1B (human) (UniProt P36896); experiment: KINOMEscan competition binding; details: compound 10.0 µM
Sequence (P36896 whole entry, looked up): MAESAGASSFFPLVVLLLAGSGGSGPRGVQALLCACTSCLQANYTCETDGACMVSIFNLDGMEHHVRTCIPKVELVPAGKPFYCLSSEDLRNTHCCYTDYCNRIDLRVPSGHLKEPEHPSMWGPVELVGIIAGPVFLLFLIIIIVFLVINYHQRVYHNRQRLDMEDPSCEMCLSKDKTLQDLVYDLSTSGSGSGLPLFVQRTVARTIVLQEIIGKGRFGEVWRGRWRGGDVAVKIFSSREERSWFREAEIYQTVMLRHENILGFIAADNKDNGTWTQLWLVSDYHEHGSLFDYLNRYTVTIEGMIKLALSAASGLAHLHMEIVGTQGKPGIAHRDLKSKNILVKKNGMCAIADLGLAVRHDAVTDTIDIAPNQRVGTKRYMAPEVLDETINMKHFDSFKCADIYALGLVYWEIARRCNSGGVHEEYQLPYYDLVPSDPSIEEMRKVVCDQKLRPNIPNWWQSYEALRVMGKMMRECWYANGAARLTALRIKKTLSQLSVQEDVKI
API: value field is a number in %; no unit string.

kinase still bound, per cent of control lookup needed for CCOc1cc2ncc(C#N)c(Nc3ccc(OCc4ccccn4)c(Cl)c3)c2cc1NC(=O)/C=C/CN(C)C , thanks.
100

Also need COc1cc(C(=O)NC2CCN(C)CC2)ccc1Nc1ncc2c(n1)N(C1CCCC1)C(C)CC(=O)N2C (centres undefined) , thanks.
100

Also need N#Cc1c(NC(=O)c2cccc3ccccc23)sc2c1CCCC2 , thanks.
100

Also need Cc1ccc(C(=O)Nc2cccc(C(F)(F)F)c2)cc1Nc1cncc(C(N)=O)c1 , thanks.
100

Also need CCN1CCN(Cc2ccc(Nc3ncc4c(n3)N(C)c3ccccc3C(=O)N4C)cc2C(F)(F)F)CC1 , thanks.
100

---

Listing: kinase still bound, per cent of control of selected compounds
tested on: PIK3CA (human), P42336 [H1047Y]; assay: KINOMEscan competition binding; settings: compound 10.0 µM
Sequence (P42336 whole entry H1047Y, looked up): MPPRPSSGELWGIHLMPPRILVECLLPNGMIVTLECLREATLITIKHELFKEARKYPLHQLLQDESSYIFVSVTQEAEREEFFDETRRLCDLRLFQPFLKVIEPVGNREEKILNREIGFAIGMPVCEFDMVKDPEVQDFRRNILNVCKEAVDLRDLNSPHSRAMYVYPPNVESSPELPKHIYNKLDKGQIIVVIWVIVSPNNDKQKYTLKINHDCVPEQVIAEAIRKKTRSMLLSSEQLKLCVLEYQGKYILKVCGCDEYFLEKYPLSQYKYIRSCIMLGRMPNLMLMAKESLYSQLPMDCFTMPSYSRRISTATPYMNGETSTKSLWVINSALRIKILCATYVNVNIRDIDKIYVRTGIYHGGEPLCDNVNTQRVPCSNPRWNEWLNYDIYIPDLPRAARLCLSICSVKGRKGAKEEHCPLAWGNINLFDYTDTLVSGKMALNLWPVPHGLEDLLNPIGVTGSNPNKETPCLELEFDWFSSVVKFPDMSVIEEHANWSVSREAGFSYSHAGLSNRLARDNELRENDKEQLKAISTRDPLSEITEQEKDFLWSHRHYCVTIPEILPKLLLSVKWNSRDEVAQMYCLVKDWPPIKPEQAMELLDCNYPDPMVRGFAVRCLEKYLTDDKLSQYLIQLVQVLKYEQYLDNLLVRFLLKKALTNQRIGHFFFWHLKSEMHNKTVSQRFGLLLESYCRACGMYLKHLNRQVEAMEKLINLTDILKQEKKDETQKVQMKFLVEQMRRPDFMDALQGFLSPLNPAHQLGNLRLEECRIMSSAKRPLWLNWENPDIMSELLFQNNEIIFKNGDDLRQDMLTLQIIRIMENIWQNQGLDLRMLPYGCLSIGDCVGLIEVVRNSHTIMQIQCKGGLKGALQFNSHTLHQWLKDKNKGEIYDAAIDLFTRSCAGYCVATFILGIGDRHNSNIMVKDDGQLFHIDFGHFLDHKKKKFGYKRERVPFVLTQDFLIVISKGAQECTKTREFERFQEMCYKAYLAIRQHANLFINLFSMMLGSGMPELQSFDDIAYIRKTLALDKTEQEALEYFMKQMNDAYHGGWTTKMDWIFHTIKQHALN
API: value field is a number in %; no unit string.

1. Cc1cn(-c2cc(C(=O)Nc3ccc(C)c(NC(=O)c4ccno4)c3)cc(C(F)(F)F)c2)cn1: 100
2. N#Cc1c(NC(=O)c2cccc3ccccc23)sc2c1CCCC2: 100
3. COCC(=O)NC/C=C/c1ccc2ncnc(Nc3ccc(Oc4ccc(C)nc4)c(C)c3)c2c1: 47
4. C=CC(=O)Nc1cc(NC(=O)c2ccc(C)c(NC(=O)c3ccno3)c2)cc(C(F)(F)F)c1: 95
5. CCN1CCN(C(=O)Cc2ccc(Nc3ncc(F)c(Nc4ccc(C(=O)Nc5ccccc5Cl)cc4)n3)cc2)CC1: 62

kinase still bound, per cent of control lookup needed for COc1cc2ncn(-c3cc(OCc4ccccc4C(F)(F)F)c(C(N)=O)s3)c2cc1OC , thanks.
36

Also need CCN(CC)CCCCNc1ncc2c(n1)N(C)C(=O)N(c1c(Cl)c(OC)cc(OC)c1Cl)C2 , thanks.
100

Also need COc1cc2c(Nc3ccc(NC(=O)c4ccccc4)cc3)ncnc2cc1OCCCN1CCOCC1 , thanks.
24

Also need N#Cc1cc(-c2ccnc(Nc3ccc(-n4cnc(-c5cccnc5)n4)cc3)n2)cc(N2CCOCC2)c1 , thanks.
100

Also need O=C1NC(=O)/C(=C/c2ccc3nccc(-c4ccncc4)c3c2)S1 , thanks.
0.9

---

target: MAP2K1 (human); assay: KINOMEscan competition binding; conditions: compound 10.0 µM
Listing: kinase still bound, per cent of control of selected compounds
API: value field is a number in %; no unit string.

Below are worked cases with known answers.
1) O=C(O)c1ccc(Nc2ncc3c(n2)-c2ccc(Cl)cc2C(c2c(F)cccc2F)=NC3)cc1: 86
2) OCCCNc1cc(-c2ccnc(Nc3cccc(Cl)c3)n2)ccn1: 100

kinase still bound, per cent of control lookup needed for Cc1cc([C@@H](C)Nc2ccccc2C(=O)O)c2nc(N3CCOCC3)cc(=O)n2c1 , thanks.
89

Also need CC[C@@H]1C(=O)N(C)c2cnc(Nc3ccc(C(=O)NC4CCN(C)CC4)cc3OC)nc2N1C1CCCC1 , thanks.
100

Also need CCN1CCN(Cc2ccc(Nc3ncc4c(n3)N(C)c3ccccc3C(=O)N4C)cc2C(F)(F)F)CC1 , thanks.
86

---

biological target: RPS6KA2 KD1 (human) (UniProt Q15349); test: KINOMEscan competition binding; conditions: compound 10.0 µM
Sequence (Q15349 whole entry, looked up): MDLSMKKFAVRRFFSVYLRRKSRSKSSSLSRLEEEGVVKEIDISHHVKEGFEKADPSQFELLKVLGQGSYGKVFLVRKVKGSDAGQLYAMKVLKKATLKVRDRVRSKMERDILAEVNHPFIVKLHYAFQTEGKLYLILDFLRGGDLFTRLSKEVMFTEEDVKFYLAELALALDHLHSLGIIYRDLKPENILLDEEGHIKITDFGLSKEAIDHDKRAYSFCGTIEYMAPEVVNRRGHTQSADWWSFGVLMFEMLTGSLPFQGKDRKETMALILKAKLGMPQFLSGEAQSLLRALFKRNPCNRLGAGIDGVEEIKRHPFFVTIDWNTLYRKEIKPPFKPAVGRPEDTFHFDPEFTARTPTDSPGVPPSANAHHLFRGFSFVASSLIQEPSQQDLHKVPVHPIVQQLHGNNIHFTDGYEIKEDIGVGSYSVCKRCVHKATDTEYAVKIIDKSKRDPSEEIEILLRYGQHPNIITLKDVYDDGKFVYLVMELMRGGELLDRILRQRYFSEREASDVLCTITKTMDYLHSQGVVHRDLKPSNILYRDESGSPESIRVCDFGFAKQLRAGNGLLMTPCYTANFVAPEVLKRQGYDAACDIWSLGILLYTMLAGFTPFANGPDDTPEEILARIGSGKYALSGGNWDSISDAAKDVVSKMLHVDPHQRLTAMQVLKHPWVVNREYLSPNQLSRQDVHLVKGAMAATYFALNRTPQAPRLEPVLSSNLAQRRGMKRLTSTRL
Listing: kinase still bound, per cent of control of selected compounds

1) CCC(=O)N1CCN(c2ccc(-n3c(=O)ccc4cnc5ccc(-c6cnc7ccccc7c6)cc5c43)cc2C(F)(F)F)CC1: 100%
2) COc1cc(C(=O)NC2CCN(C)CC2)ccc1Nc1ncc2c(n1)N(C1CCCC1)C(C)CC(=O)N2C (stereo unspecified): 100%

kinase still bound, per cent of control lookup needed for CC[C@@H]1C(=O)N(C)c2cnc(Nc3ccc(C(=O)NC4CCN(C)CC4)cc3OC)nc2N1C1CCCC1 , thanks.
100%

Also need C=CC(=O)Nc1cccc(Oc2nc(Nc3ccc(N4CCN(C)CC4)cc3OC)ncc2Cl)c1 , thanks.
16%

Also need Cn1c(=O)n(-c2ccc(C(C)(C)C#N)cc2)c2c3cc(-c4cnc5ccccc5c4)ccc3ncc21 , thanks.
100%

Also need CCN1CCN(Cc2ccc(Nc3ncc4c(n3)N(C)c3ccccc3C(=O)N4C)cc2C(F)(F)F)CC1 , thanks.
37%

---

target: ACVR1 (human) (UniProt Q04771); assay: KINOMEscan competition binding; conditions: compound 10.0 µM
Sequence (Q04771 whole entry, looked up): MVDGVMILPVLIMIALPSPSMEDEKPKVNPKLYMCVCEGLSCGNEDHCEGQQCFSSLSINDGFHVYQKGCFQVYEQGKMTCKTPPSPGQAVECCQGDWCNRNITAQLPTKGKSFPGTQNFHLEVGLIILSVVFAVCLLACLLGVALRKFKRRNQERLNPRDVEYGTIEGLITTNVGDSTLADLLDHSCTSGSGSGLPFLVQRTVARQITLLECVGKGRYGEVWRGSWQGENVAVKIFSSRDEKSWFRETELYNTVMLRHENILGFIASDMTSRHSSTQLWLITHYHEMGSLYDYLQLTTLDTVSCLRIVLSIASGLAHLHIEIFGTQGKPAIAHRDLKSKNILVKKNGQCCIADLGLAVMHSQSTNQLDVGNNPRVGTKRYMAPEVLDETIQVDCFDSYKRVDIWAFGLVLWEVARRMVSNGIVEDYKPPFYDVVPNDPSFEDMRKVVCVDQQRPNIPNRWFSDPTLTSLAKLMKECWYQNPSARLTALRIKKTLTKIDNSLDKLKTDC
Listing: kinase still bound, per cent of control of selected compounds
API: value field is a number in %; no unit string.

Below are worked cases with known answers.
1. Cc1ccc(NC(=O)c2cccc(C(C)(C)C#N)c2)cc1Nc1ccc2ncn(C)c(=O)c2c1: 100
2. O=C(O)c1ccc(Nc2ncc3c(n2)-c2ccc(Cl)cc2C(c2c(F)cccc2F)=NC3)cc1: 100
3. COc1cc(N2CCN(C)CC2)ccc1Nc1nc(N)c(C(=O)c2c(Cl)cccc2Cl)s1: 100
4. N#Cc1c(NC(=O)c2cccc3ccccc23)sc2c1CCCC2: 64

kinase still bound, per cent of control lookup needed for Cn1c(=O)n(-c2ccc(C(C)(C)C#N)cc2)c2c3cc(-c4cnc5ccccc5c4)ccc3ncc21 , thanks.
100

Values from the kinase profiling compilation of Christmann-Franck et al. (2016)
